Where these numbers come from: paper PMC5540273

System: PRKCQ;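 note: KINOMEscan kinase panel screen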
MEASUREMENT_SETUP: concentration: 1 μM, replicates: in singlicate; n = 1
Each record is given criterion met if its reported %Inh is strictly below 9%. Records at or above 9% are given criterion not met.

Query block: Answer whether the molecule COc1cccc(NC(=O)NC2CCN(c3ccnc(Nc4ccc(F)cc4)n3)C2)c1 (centres unmarked) has %Inh strictly less than 9%
Result block: criterion met

Query block: Answer whether the molecule Cc1nnc(-c2ccc3occ(-c4ccc(S(C)=O)cc4)c3c2)[nH]1 (centres unmarked) has %Inh strictly less than 9%
Result block: criterion met

Query block: Answer whether the molecule `COc1cccc(-c2cc(-c3c[nH]nc3-c3ccccn3)ccn2)c1` has %Inh strictly less than 9%
Result block: criterion met

Query block: Answer whether the molecule `CCn1c(-c2ccccn2)nc2cnccc21` has %Inh strictly less than 9%
Result block: criterion not met

Query block: Answer whether the molecule `O=C1NC(=O)C(N2CCc3ccccc32)=C1c1ccccc1Cl` has %Inh strictly less than 9%
Result block: criterion met

Query block: Answer whether the molecule `COC(=O)c1c(-c2ccccc2)c2cc(OC)ccc2c(=O)n1Cc1ccccc1` has %Inh strictly less than 9%
Result block: criterion not met

Query block: Answer whether the molecule `Cc1ccccc1-n1cnc2c(N)ncnc21` has %Inh strictly less than 9%
Result block: criterion met

Query block: Answer whether the molecule `Cc1cc(N2Cc3ccccc3C2)nc(Nc2ccc(S(=O)(=O)N3CCOCC3)cc2)n1.Cl` has %Inh strictly less than 9%
Result block: criterion met

Query block: Answer whether the molecule `O=C(Nc1ccccc1)Nc1cccc(Oc2ccc3nccn3n2)c1` has %Inh strictly less than 9%
Result block: criterion not met

Query block: Answer whether the molecule `CS(=O)(=O)c1ccc(-c2nc3n(c2-c2ccncc2)CCC3)cc1` has %Inh strictly less than 9%
Result block: criterion met

Query block: Answer whether the molecule `Cc1c(O)cccc1Nc1ccnc2ccc(C(F)(F)F)cc12.Cl` has %Inh strictly less than 9%
Result block: criterion met

Query block: Answer whether the molecule `Cl.O=C(Nc1cccc(-c2nn3ncccc3c2-c2ccnc(Nc3cccnc3)n2)c1)c1c(F)cccc1F` has %Inh strictly less than 9%
Result block: criterion not met

Query block: Answer whether the molecule `O=C(Nc1n[nH]c2nc(-c3nccs3)c(Br)cc12)C1CC1` has %Inh strictly less than 9%
Result block: criterion not met

Query block: Answer whether the molecule `CN1C(=O)C(Nc2ccc(Cl)c(C(=O)O)c2)=C(c2ccc(Cl)cc2)C1=O` has %Inh strictly less than 9%
Result block: criterion not met

Query block: Answer whether the molecule `O=C(Nc1n[nH]c2cc(-c3cccc(F)c3F)ccc12)C1CC1` has %Inh strictly less than 9%
Result block: criterion not met

Query block: Answer whether the molecule `CS(=O)(=O)c1ccc(-c2c(-c3ncn[nH]3)sc(N3CCOCC3)c2C#N)cc1` has %Inh strictly less than 9%
Result block: criterion met

Query block: Answer whether the molecule `Cn1ccc2ncnc(Oc3cccc(C(=O)Nc4ccccc4)c3)c21` has %Inh strictly less than 9%
Result block: criterion met

Query block: Answer whether the molecule `Fc1cccc(COc2nnc(-c3ccc4c(c3)CCO4)o2)c1` has %Inh strictly less than 9%
Result block: criterion not met

Query block: Answer whether the molecule `Cn1ccc2ncnc(Oc3ccc(Nc4nc5ccccc5[nH]4)cc3)c21` has %Inh strictly less than 9%
Result block: criterion met

Query block: Answer whether the molecule COc1ccc(CNC(=O)NC2CCN(c3ccnc(Nc4cc(OC)c(OC)c(OC)c4)n3)C2)cc1 (centres unmarked) has %Inh strictly less than 9%
Result block: criterion met

Query block: Answer whether the molecule `Cl.Oc1ccc(-c2nc(-c3ccccc3)[nH]c2-c2ccncc2)cc1` has %Inh strictly less than 9%
Result block: criterion met

Query block: Answer whether the molecule `Cc1csc(-c2nc(Nc3ccncc3)c3ccccc3n2)n1` has %Inh strictly less than 9%
Result block: criterion met

Query block: Answer whether the molecule `CC(C)(C)c1ccc(C(=O)Nc2cn3cc(-c4cccnc4)ccc3n2)cc1` has %Inh strictly less than 9%
Result block: criterion not met

Query block: Answer whether the molecule `Nc1ncnc2[nH]c(-c3ccccc3)nc12` has %Inh strictly less than 9%
Result block: criterion met

Query block: Answer whether the molecule COc1cc2ncn(-c3cc(OCC4CCCO4)c(C(N)=O)s3)c2cc1OC (centres unmarked) has %Inh strictly less than 9%
Result block: criterion met

Query block: Answer whether the molecule `CCn1c(-c2cccnc2O)nc2cnccc21` has %Inh strictly less than 9%
Result block: criterion met

Query block: Answer whether the molecule `Cc1ccc(-c2cc(-c3c[nH]nc3-c3ccccn3)ccn2)cc1` has %Inh strictly less than 9%
Result block: criterion met

Query block: Answer whether the molecule `Cc1cccc(-c2nc(C)cc(Nc3ccncc3)n2)n1` has %Inh strictly less than 9%
Result block: criterion met

Query block: Answer whether the molecule `Cl.c1ccc(-c2n[nH]cc2-c2ccnc(-c3ccc(CN4CCOCC4)cc3)c2)nc1` has %Inh strictly less than 9%
Result block: criterion met

Query block: Answer whether the molecule `CC(C)(C)c1ccc(C(=O)Nc2cn3cc(Cl)ccc3n2)cc1` has %Inh strictly less than 9%
Result block: criterion not met

Query block: Answer whether the molecule `Cn1ccc2ncnc(Oc3ccc(NC(=O)Nc4ccccc4)cc3)c21` has %Inh strictly less than 9%
Result block: criterion not met

Query block: Answer whether the molecule `COc1cc2ncnc(Nc3ccc4nc(-c5ccccc5)[nH]c4c3)c2cc1OC.Cl` has %Inh strictly less than 9%
Result block: criterion not met

Query block: Answer whether the molecule `Clc1cc(Cl)cc(Nc2ccnc(Nc3cc(Cl)cc(Cl)c3)n2)c1` has %Inh strictly less than 9%
Result block: criterion met

Query block: Answer whether the molecule `O=C(Nc1n[nH]c2nc(-c3nccs3)c(Br)cc12)C1CCCC1` has %Inh strictly less than 9%
Result block: criterion met

Query block: Answer whether the molecule `Nc1nc(-c2nccs2)c(-c2ccnc3ccccc23)s1` has %Inh strictly less than 9%
Result block: criterion not met

Query block: Answer whether the molecule `COc1ccccc1CNC(=O)c1cc(C(=O)c2ccccc2C)c[nH]1` has %Inh strictly less than 9%
Result block: criterion met

Query block: Answer whether the molecule `Fc1cc(Cl)ccc1Nc1ccnc2cc(-c3ccc(CN4CCCCC4)o3)ccc12` has %Inh strictly less than 9%
Result block: criterion met
